# test description: Hepatic microsomal stability, rat
# Type: in vitro ADME
# condition description: pooled liver microsomes, read-out: Mean intrinsic clearance
endpoint name: microsomal CLint at 0.1 μM (µL/min/mg)

1) C#Cc1cc(Nc2nccc(Oc3ccc(NC(=O)Nc4cc(C(C)(C)C)nn4-c4ccc(C)cc4)c4ccccc34)n2)cc(C(=O)NCCOCCOCCOC)c1 199

----------
# test description: Pharmacokinetics and colon distribution in mice
# Type: in vivo, male C57BL/6 mice
# condition description: male, C57BL/6, colon, po; mouse, 5 mg/kg p.o., 8 hr; read-out: Mean concentration, Colon
endpoint name: concentration at 8 h

1. C#Cc1cc(Nc2nccc(Oc3ccc(NC(=O)Nc4cc(C(C)(C)C)nn4-c4ccc(C)cc4)c4ccccc34)n2)cc(C(=O)NCCOCCOCCOC)c1 13700 ng/g

----------
# test description: Pharmacokinetics and colon distribution in rats
# Assay type: in vivo, male Wistar rats
# condition description: male, Wistar, po; Rat, 5 mg/kg p.o., Plasma
endpoint name: Tmax (h)

1) C#Cc1cc(Nc2nccc(Oc3ccc(NC(=O)Nc4cc(C(C)(C)C)nn4-c4ccc(C)cc4)c4ccccc34)n2)cc(C(=O)NCCOCCOCCOC)c1 4

----------
# test description: Pharmacokinetics and colon distribution in mice
# Assay type: in vivo, male C57BL/6 mice
# condition description: male, C57BL/6, po; Mouse, 5 mg/kg p.o., Total colon

compound	unit annotation	AUC(0-t)
C#Cc1cc(Nc2nccc(Oc3ccc(NC(=O)Nc4cc(C(C)(C)C)nn4-c4ccc(C)cc4)c4ccccc34)n2)cc(C(=O)NCCOCCOCCOC)c1 [Example 2]	µg·h/mL	117

----------
# test description: Pharmacokinetics and colon distribution in mice
# Assay type: in vivo, male C57BL/6 mice
# condition description: male, C57BL/6, colon, po; mouse, 5 mg/kg p.o., 6 hr; read-out: Mean concentration, Colon
endpoint name: concentration at 6 h (ng/g)

1) C#Cc1cc(Nc2nccc(Oc3ccc(NC(=O)Nc4cc(C(C)(C)C)nn4-c4ccc(C)cc4)c4ccccc34)n2)cc(C(=O)NCCOCCOCCOC)c1 1400

----------
# test description: Cryopreserved hepatocyte stability, dog
# Type: in vitro ADME
# condition description: pooled cryopreserved hepatocytes, read-out: Mean intrinsic clearance

compound	hepatocyte CLint at 0.1 μM / µL/min/1e6 cells
C#Cc1cc(Nc2nccc(Oc3ccc(NC(=O)Nc4cc(C(C)(C)C)nn4-c4ccc(C)cc4)c4ccccc34)n2)cc(C(=O)NCCOCCOCCOC)c1 [Example 2]	46

----------
# test description: Pharmacokinetics and colon distribution in rats
# Format: in vivo, male Wistar rats
# condition description: male, Wistar, colon, po; rat, 5 mg/kg p.o., 2 hr; read-out: Mean concentration, Colon
endpoint name: concentration at 2 h (ng/g)

1) C#Cc1cc(Nc2nccc(Oc3ccc(NC(=O)Nc4cc(C(C)(C)C)nn4-c4ccc(C)cc4)c4ccccc34)n2)cc(C(=O)NCCOCCOCCOC)c1 4

----------
# target or system: GSK3α (Homo sapiens (Human))
# Sequence (P49840 whole entry): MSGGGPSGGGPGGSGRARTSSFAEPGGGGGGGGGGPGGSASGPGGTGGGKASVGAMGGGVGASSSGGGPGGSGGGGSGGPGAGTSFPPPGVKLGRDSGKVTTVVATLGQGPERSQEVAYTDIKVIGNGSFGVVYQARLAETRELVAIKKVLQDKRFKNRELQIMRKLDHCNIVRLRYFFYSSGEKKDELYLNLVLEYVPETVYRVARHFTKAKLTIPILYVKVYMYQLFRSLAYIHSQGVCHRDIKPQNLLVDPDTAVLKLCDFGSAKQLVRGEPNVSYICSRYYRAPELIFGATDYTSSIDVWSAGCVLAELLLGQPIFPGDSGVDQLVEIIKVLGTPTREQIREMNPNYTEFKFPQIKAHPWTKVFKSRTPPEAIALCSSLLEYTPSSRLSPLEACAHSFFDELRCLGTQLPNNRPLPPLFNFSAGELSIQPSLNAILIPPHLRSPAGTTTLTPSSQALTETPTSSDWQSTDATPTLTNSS
List of IC50 values.
endpoint name: IC50

molecule	target or system	endpoint name	val
C#Cc1cc(Nc2nccc(Oc3ccc(NC(=O)Nc4cc(C(C)(C)C)nn4-c4ccc(OC)cc4C)c4ccccc34)n2)cc(C(=O)NCCOCCOCCOC)c1 [Example 17]	GSK3α (Homo sapiens (Human))	IC50	12.1 µM
C#Cc1cc(Nc2cc(Oc3ccc(NC(=O)Nc4cc(C(C)(C)C)nn4-c4ccc(N(C)C)cc4)c4ccccc34)ccn2)cc(C(=O)NCCOCCOCCOC)c1 [Example 11]	GSK3α (Homo sapiens (Human))	IC50	12.1 µM
C#Cc1cc(Nc2nccc(Oc3ccc(NC(=O)Nc4cc(C(C)(C)C)nn4-c4ccc(OC)cc4)c4ccccc34)n2)cc(C(=O)NCCOCCOC)c1 [Example 5]	GSK3α (Homo sapiens (Human))	IC50	13 µM
C#Cc1cc(Nc2nccc(Oc3ccc(NC(=O)Nc4cc(C(C)(C)C)nn4-c4ccc(N(C)C)cc4)c4ccccc34)n2)cc(C(=O)NCCOCCOCCOC)c1 [Example 9]	GSK3α (Homo sapiens (Human))	IC50	12.1 µM
C#Cc1cc(Nc2nccc(Oc3ccc(NC(=O)Nc4cc(C(C)(C)C)nn4-c4cccc(CP(C)(C)=O)c4)c4ccccc34)n2)cc(C(=O)NCCOCCOCCOC)c1 [Example 14]	GSK3α (Homo sapiens (Human))	IC50	0.402 µM
C#Cc1cc(Nc2nccc(Oc3ccc(NC(=O)Nc4cc(C(C)C)nn4-c4ccc(C)cc4)c4ccccc34)n2)cc(C(=O)NCCOCCOCCOC)c1 [Example 1]	GSK3α (Homo sapiens (Human))	IC50	12.8 µM

----------
# test description: Pharmacokinetics and colon distribution in rats
# Type: in vivo, male Wistar rats
# condition description: male, Wistar, colon, po; rat, 5 mg/kg p.o., 1 hr; read-out: Mean concentration, Colon
# Method: 30 male Wistar rats were divided into two groups: Group I (p.o.: 5 mg/kg) and Group II (i.v.: 0.25 mg/kg). […] From each rat, blood samples (approximately 120 μL) were collected from retro orbital plexus such that samples were obtained at pre-dose, 0.05, 0.13, 0.25, 0.5, 1, 2, 4, 8, and 24 hr (i.v.) and pre-dose, 0.5, 1, 2, 4, 6, 8, 12 and 24 hr (p.o.). […] Plasma and total colon tissue samples were quantified by LC-MS/MS method (LLOQ in plasma and total colon tissue=0.5 ng/mL).
endpoint name: concentration at 1 h (ng/g)

molecule	unit annotation	val
C#Cc1cc(Nc2nccc(Oc3ccc(NC(=O)Nc4cc(C(C)(C)C)nn4-c4ccc(C)cc4)c4ccccc34)n2)cc(C(=O)NCCOCCOCCOC)c1 [Example 2]	ng/g	1.9

----------
# test description: Plasma pharmacokinetics in beagle dogs
# Type: in vivo, male beagle dogs
# condition description: male, beagle, plasma; Dog, 0.05 mg/kg intravenous

compound	half-life / h
C#Cc1cc(Nc2nccc(Oc3ccc(NC(=O)Nc4cc(C(C)(C)C)nn4-c4ccc(C)cc4)c4ccccc34)n2)cc(C(=O)NCCOCCOCCOC)c1 [Example 2]	1.9

----------
# test description: Pharmacokinetics and colon distribution in rats
# Format: in vivo, male Wistar rats
# condition description: male, Wistar, plasma, po; rat, 5 mg/kg p.o., 6 hr; read-out: Mean concentration, Plasma
endpoint name: concentration at 6 h (ng/mL)

1) C#Cc1cc(Nc2nccc(Oc3ccc(NC(=O)Nc4cc(C(C)(C)C)nn4-c4ccc(C)cc4)c4ccccc34)n2)cc(C(=O)NCCOCCOCCOC)c1 1.7

----------
# test description: Plasma pharmacokinetics in beagle dogs
# Format: in vivo, male beagle dogs
# condition description: male, beagle, plasma; Dog, 0.05 mg/kg intravenous
endpoint name: AUC(0-t) (ng·h/mL)

1. C#Cc1cc(Nc2nccc(Oc3ccc(NC(=O)Nc4cc(C(C)(C)C)nn4-c4ccc(C)cc4)c4ccccc34)n2)cc(C(=O)NCCOCCOCCOC)c1 218

----------
# target or system: CYP3A4 (Homo sapiens (Human))
# Sequence (P08684 whole entry): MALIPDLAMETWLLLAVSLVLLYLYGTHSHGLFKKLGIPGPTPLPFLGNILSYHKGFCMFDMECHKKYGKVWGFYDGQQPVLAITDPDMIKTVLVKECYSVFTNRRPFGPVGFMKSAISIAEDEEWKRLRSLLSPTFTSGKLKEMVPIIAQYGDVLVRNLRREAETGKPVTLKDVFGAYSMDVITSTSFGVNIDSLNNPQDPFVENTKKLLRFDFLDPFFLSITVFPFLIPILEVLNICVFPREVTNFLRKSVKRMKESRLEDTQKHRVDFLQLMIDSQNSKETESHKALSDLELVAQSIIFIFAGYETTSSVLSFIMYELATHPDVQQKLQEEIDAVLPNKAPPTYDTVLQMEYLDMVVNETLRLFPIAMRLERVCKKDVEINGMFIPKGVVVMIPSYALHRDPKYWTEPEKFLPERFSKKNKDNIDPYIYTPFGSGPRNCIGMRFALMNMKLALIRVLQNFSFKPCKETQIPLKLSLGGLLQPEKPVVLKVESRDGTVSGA
# test description: CYP450 time-dependent inhibition, CYP3A4
# Type: in vitro ADME
# condition description: CYP3A4, 30 min preincubation
endpoint name: IC50 (µM)

1. C#Cc1cc(Nc2nccc(Oc3ccc(NC(=O)Nc4cc(C(C)(C)C)nn4-c4ccc(C)cc4)c4ccccc34)n2)cc(C(=O)NCCOCCOCCOC)c1 7.7

----------
# target or system: UniProt:P08684
# test description: CYP450 time-dependent inhibition, CYP3A4
# Assay type: in vitro ADME
# condition description: human, pooled human liver microsomes, pH 7.4; CYP3A4, 0 min preincubation, 15 μM; read-out: 15 μM % Inh
endpoint name: inhibition at 0 min, 15 µM (%)

1) C#Cc1cc(Nc2nccc(Oc3ccc(NC(=O)Nc4cc(C(C)(C)C)nn4-c4ccc(C)cc4)c4ccccc34)n2)cc(C(=O)NCCOCCOCCOC)c1 2

----------
# test description: Pharmacokinetics and colon distribution in mice
# Format: in vivo, male C57BL/6 mice
# condition description: male, C57BL/6, colon, po; mouse, 5 mg/kg p.o., 24 hr; read-out: Mean concentration, Colon
endpoint name: concentration at 24 h (ng/g)

1) C#Cc1cc(Nc2nccc(Oc3ccc(NC(=O)Nc4cc(C(C)(C)C)nn4-c4ccc(C)cc4)c4ccccc34)n2)cc(C(=O)NCCOCCOCCOC)c1 31.6

----------
# test description: Pharmacokinetics and colon distribution in mice
# Assay type: in vivo, male C57BL/6 mice
# condition description: male, C57BL/6, colon, po; mouse, 5 mg/kg p.o., 4 hr; read-out: Mean concentration, Colon

molecule	concentration at 4 h / ng/g
C#Cc1cc(Nc2nccc(Oc3ccc(NC(=O)Nc4cc(C(C)(C)C)nn4-c4ccc(C)cc4)c4ccccc34)n2)cc(C(=O)NCCOCCOCCOC)c1 [Example 2]	4240

----------
# test description: Pharmacokinetics and colon distribution in mice
# Assay type: in vivo, male C57BL/6 mice
# condition description: male, C57BL/6, po; Mouse, 5 mg/kg p.o., Plasma
endpoint name: Cmax (ng/mL)

molecule	val
C#Cc1cc(Nc2nccc(Oc3ccc(NC(=O)Nc4cc(C(C)(C)C)nn4-c4ccc(C)cc4)c4ccccc34)n2)cc(C(=O)NCCOCCOCCOC)c1 [Example 2]	12
